The values you see were collected from patent US8772500B2.

# protocol: In vitro human microsomal stability assay
# Format: in vitro ADME
# measurement_parameters: human, 0.5 h, 0.5 μM, pH 7.4
Given measured HUMAN MICROSOMAL STABILITY (% REMAINING AFTER 30 MINUTES), output rule met if it is greater than or equal to 50% and rule not met if not.

[[record]]
compound = "OC(c1ccccn1)C1(c2cc(C(F)(F)F)cc(C(F)(F)F)c2)CCC1 (stereo not drawn)"
answer_label = "rule not met"

[[record]]
compound = "CN[C@@H]1CCC[C@H]1[C@@H](O)C1(c2ccc(Cl)c(Cl)c2)CCC1"
answer_label = "rule met"

[[record]]
compound = "OC(C1CCc2cccnc21)C1(c2cccc(C(F)(F)F)c2)CCC1 (stereo not drawn) [Example 186]"
answer_label = "rule not met"

[[record]]
compound = "OC(c1ccccn1)C1(C2CCOC2)CCC1 (stereo not drawn)"
answer_label = "rule met"

[[record]]
compound = "OC1CC(c2ccc(OC(F)(F)F)cc2)(C(O)c2ccccn2)C1 (single isomer, unassigned) [Example 131]"
answer_label = "rule met"

[[record]]
compound = "OC1CC(c2ccc(Cl)c(Cl)c2)(C(O)c2ncccn2)C1 (single isomer, unassigned) [Example 313]"
answer_label = "rule met"

[[record]]
compound = "OC(c1ccccn1)C1(C2CCCC2)CCC1 (stereo not drawn)"
answer_label = "rule not met"

